Tested on: 3132 canine lymphoma cell line (B-cell LSA line)
Test: In vitro anti-proliferation assay (MTS), 3132 cell line
Type: cell-based
Details: Canis lupus familiaris; 3132, B-cell LSA line
Measured quantity: pIC50
pIC50 is defined as minus the log10 of a concentration measured in mol/L.

Exercise: Fill in: pIC50 of CC(=O)[C@]1(O)Cc2c(O)c3c(c(O)c2[C@@H](O[C@H]2C[C@H](N)[C@H](O)[C@H](C)O2)C1)C(=O)c1ccccc1C3=O [Idarubicin, idarubicin] is ___
Solution: 8.57

* * *

System: ex-vivo derived canine lymphoma cells (nodal tissue)
Assay: In vitro anti-proliferation assay (MTS), ex vivo canine lymphoma nodal tissue
Settings: read-out: Anti-proliferation IC50; MSU LN 11 ID671795, de novo B-cell LSA; stimulant LPS + ConA
Measured quantity: IC50 (nM)
Numbers only; they are read as nM.

Exercise: # IC50 lookup, item CC(=O)[C@]1(O)Cc2c(O)c3c(c(O)c2[C@@H](O[C@H]2C[C@H](N)[C@H](O)[C@H](C)O2)C1)C(=O)c1ccccc1C3=O
Solution: 4
